B1: OR4K15 (parent)
chain: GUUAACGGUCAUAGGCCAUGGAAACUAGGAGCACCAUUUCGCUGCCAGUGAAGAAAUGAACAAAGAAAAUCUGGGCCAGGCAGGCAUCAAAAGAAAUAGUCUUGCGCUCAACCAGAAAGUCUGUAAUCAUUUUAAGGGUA

variants of: B1; assay: self-cleavage, relative activity (ratio to wild type); higher = more cleavage; in vitro, sequencing; the parent is a self-cleaving ribozyme
Binary classification by self-cleavage, with 1 as an inclusive lower bound for YES; all other cases are NO.

- MUTANT_ID: "A36G C76U"
  DISCRETE_LABEL: "NO"
- MUTANT_ID: "A111U A126C"
  DISCRETE_LABEL: "NO"
- MUTANT_ID: "G74A A94C"
  DISCRETE_LABEL: "NO"
- MUTANT_ID: "U38C A47U"
  DISCRETE_LABEL: "NO"
- MUTANT_ID: "U49C C128A"
  DISCRETE_LABEL: "YES"
- MUTANT_ID: "U9C A78U"
  DISCRETE_LABEL: "NO"
- MUTANT_ID: "U72C U133C"
  DISCRETE_LABEL: "NO"
- MUTANT_ID: "C107U U122A"
  DISCRETE_LABEL: "NO"
- MUTANT_ID: "U108C U132C"
  DISCRETE_LABEL: "NO"
- MUTANT_ID: "A51U U87A"
  DISCRETE_LABEL: "YES"
- MUTANT_ID: "A89G U100G"
  DISCRETE_LABEL: "YES"
- MUTANT_ID: "A5U A67G"
  DISCRETE_LABEL: "YES"
- MUTANT_ID: "A110G A140G"
  DISCRETE_LABEL: "NO"
- MUTANT_ID: "U72C A98U"
  DISCRETE_LABEL: "NO"
- MUTANT_ID: "A67U A118U"
  DISCRETE_LABEL: "NO"
- MUTANT_ID: "A18G U103C"
  DISCRETE_LABEL: "YES"
- MUTANT_ID: "A33U U39A"
  DISCRETE_LABEL: "YES"
- MUTANT_ID: "A54G U139C"
  DISCRETE_LABEL: "YES"
- MUTANT_ID: "U49A A89G"
  DISCRETE_LABEL: "NO"
- MUTANT_ID: "G41A A140G"
  DISCRETE_LABEL: "YES"
- MUTANT_ID: "A52G C113U"
  DISCRETE_LABEL: "NO"
- MUTANT_ID: "C42U A95G"
  DISCRETE_LABEL: "YES"
- MUTANT_ID: "A24G A135U"
  DISCRETE_LABEL: "YES"
- MUTANT_ID: "A54C A95G"
  DISCRETE_LABEL: "YES"
- MUTANT_ID: "A78G G138A"
  DISCRETE_LABEL: "NO"
- MUTANT_ID: "A63G U72G"
  DISCRETE_LABEL: "NO"
- MUTANT_ID: "A51G A55C"
  DISCRETE_LABEL: "NO"
- MUTANT_ID: "U103A A116U"
  DISCRETE_LABEL: "NO"
- MUTANT_ID: "U2C U43C"
  DISCRETE_LABEL: "YES"
- MUTANT_ID: "U19G A110G"
  DISCRETE_LABEL: "NO"
- MUTANT_ID: "A24G U70A"
  DISCRETE_LABEL: "YES"
- MUTANT_ID: "U49C A89C"
  DISCRETE_LABEL: "YES"
- MUTANT_ID: "A54U G115U"
  DISCRETE_LABEL: "NO"
- MUTANT_ID: "U38C A94G"
  DISCRETE_LABEL: "NO"
- MUTANT_ID: "U9G A62U"
  DISCRETE_LABEL: "NO"
- MUTANT_ID: "A52U A126G"
  DISCRETE_LABEL: "YES"
- MUTANT_ID: "U39A"
  DISCRETE_LABEL: "YES"
- MUTANT_ID: "C32U U57C"
  DISCRETE_LABEL: "YES"
- MUTANT_ID: "U120C U122G"
  DISCRETE_LABEL: "YES"
- MUTANT_ID: "C77U A82G"
  DISCRETE_LABEL: "YES"
- MUTANT_ID: "A13G U87C"
  DISCRETE_LABEL: "YES"
- MUTANT_ID: "U2G A91G"
  DISCRETE_LABEL: "YES"
- MUTANT_ID: "A51U A62G"
  DISCRETE_LABEL: "YES"
- MUTANT_ID: "A52C A129G"
  DISCRETE_LABEL: "NO"
- MUTANT_ID: "C40A U49C"
  DISCRETE_LABEL: "YES"
- MUTANT_ID: "G50A U108A"
  DISCRETE_LABEL: "NO"
- MUTANT_ID: "C6A A64G"
  DISCRETE_LABEL: "YES"
- MUTANT_ID: "A126C U130C"
  DISCRETE_LABEL: "NO"
- MUTANT_ID: "G75U C85U"
  DISCRETE_LABEL: "NO"
- MUTANT_ID: "A55G C109U"
  DISCRETE_LABEL: "NO"
- MUTANT_ID: "U37C A129G"
  DISCRETE_LABEL: "NO"
- MUTANT_ID: "A5U A27G"
  DISCRETE_LABEL: "YES"
- MUTANT_ID: "A90G A117G"
  DISCRETE_LABEL: "NO"
- MUTANT_ID: "C46U A114G"
  DISCRETE_LABEL: "NO"
- MUTANT_ID: "U100A A117G"
  DISCRETE_LABEL: "YES"
- MUTANT_ID: "U9C U127C"
  DISCRETE_LABEL: "YES"
- MUTANT_ID: "A18U A91G"
  DISCRETE_LABEL: "YES"
- MUTANT_ID: "C61U A91G"
  DISCRETE_LABEL: "NO"
- MUTANT_ID: "U103C A114U"
  DISCRETE_LABEL: "NO"
- MUTANT_ID: "A67G A110U"
  DISCRETE_LABEL: "YES"
- MUTANT_ID: "U19A G44A"
  DISCRETE_LABEL: "YES"
- MUTANT_ID: "U49A A67G"
  DISCRETE_LABEL: "YES"
- MUTANT_ID: "A55G"
  DISCRETE_LABEL: "YES"
- MUTANT_ID: "A13G G15U"
  DISCRETE_LABEL: "YES"
- MUTANT_ID: "C16G A68U"
  DISCRETE_LABEL: "NO"
- MUTANT_ID: "C25U U132C"
  DISCRETE_LABEL: "YES"
- MUTANT_ID: "A11G C121A"
  DISCRETE_LABEL: "YES"
- MUTANT_ID: "A11U A118G"
  DISCRETE_LABEL: "NO"
- MUTANT_ID: "U72A C101A"
  DISCRETE_LABEL: "NO"
- MUTANT_ID: "A59U A135G"
  DISCRETE_LABEL: "YES"
- MUTANT_ID: "A82G G138A"
  DISCRETE_LABEL: "NO"
- MUTANT_ID: "A55C G106A"
  DISCRETE_LABEL: "NO"
- MUTANT_ID: "G44A A110G"
  DISCRETE_LABEL: "NO"
- MUTANT_ID: "A18G A110G"
  DISCRETE_LABEL: "NO"
- MUTANT_ID: "U49C U122G"
  DISCRETE_LABEL: "YES"
- MUTANT_ID: "U3C A92G"
  DISCRETE_LABEL: "YES"
- MUTANT_ID: "A47C A92U"
  DISCRETE_LABEL: "NO"
- MUTANT_ID: "U72A A110C"
  DISCRETE_LABEL: "NO"
- MUTANT_ID: "U72C A78G"
  DISCRETE_LABEL: "NO"
